Data export: AC50 values recorded with Glucocorticoid receptor (Homo sapiens, UniProt P04150).
Sequence (P04150 whole entry): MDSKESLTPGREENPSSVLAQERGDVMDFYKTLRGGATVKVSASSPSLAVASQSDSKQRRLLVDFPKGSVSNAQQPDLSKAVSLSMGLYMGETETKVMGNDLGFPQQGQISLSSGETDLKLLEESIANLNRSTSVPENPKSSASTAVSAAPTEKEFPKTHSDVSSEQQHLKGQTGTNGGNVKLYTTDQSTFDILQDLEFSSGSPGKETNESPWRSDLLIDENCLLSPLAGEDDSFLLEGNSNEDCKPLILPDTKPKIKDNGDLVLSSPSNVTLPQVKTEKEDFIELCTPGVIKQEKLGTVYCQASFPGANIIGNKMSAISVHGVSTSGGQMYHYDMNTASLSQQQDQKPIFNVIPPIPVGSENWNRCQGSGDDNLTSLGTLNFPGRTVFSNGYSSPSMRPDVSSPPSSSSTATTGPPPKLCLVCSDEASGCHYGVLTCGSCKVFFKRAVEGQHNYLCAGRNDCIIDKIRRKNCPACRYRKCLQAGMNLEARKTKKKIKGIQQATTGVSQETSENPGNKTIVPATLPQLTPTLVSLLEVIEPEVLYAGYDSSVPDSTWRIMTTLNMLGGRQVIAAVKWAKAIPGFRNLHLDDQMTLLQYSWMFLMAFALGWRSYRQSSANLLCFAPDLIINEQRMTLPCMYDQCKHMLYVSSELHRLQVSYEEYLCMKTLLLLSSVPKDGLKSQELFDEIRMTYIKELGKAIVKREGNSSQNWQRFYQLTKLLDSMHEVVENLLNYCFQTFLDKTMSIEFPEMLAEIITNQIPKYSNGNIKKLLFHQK
Endpoint name: AC50

• C=CC[C@@H]1/C=C(\C)C[C@H](C)C[C@H](OC)[C@H]2O[C@@](O)(C(=O)C(=O)N3CCCC[C@H]3C(=O)O[C@H](/C(C)=C/[C@@H]3CC[C@@H](O)[C@H](OC)C3)[C@H](C)[C@@H](O)CC1=O)[C@H](C)C[C@@H]2OC [TACROLIMUS ANHYDROUS] = > 30 µM
• Oc1ccc2c(c1)CC[C@H](c1ccccc1)[C@@H]2c1ccc(OCCN2CCCC2)cc1 = 9.3 µM
• CCC(=O)O[C@H]1CC[C@H]2[C@@H]3CCC4=CC(=O)CC[C@]4(C)[C@H]3CC[C@]12C [TESTOSTERONE PROPIONATE] = 0.109 µM
• CN(C)CCC[C@@]1(c2ccc(F)cc2)OCc2cc(C#N)ccc21 = > 30 µM
• CN1C(C(=O)Nc2ccccn2)=C(O)c2ccccc2S1(=O)=O = > 10 µM
• CC(=O)O[C@H](CC(=O)[O-])C[N+](C)(C)C = > 30 µM
• O=C(O)c1cn(C2CC2)c2cc(N3CCNCC3)c(F)cc2c1=O = > 30 µM
• COc1ccccc1Oc1c(NS(=O)(=O)c2ccc(C(C)(C)C)cc2)nc(-c2ncccn2)nc1OCCO = > 30 µM
• C#C[C@]1(OC(C)=O)CC[C@H]2[C@@H]3CCC4=C/C(=N/O)CC[C@@H]4[C@H]3CC[C@@]21CC [NORGESTIMATE] = 0.041 µM
• CC(=O)[C@]1(O)Cc2c(O)c3c(c(O)c2[C@@H](O[C@H]2C[C@H](N)[C@H](O)[C@H](C)O2)C1)C(=O)c1ccccc1C3=O = 0.11 µM
• CC1=C(C)C(=O)C(C(CCCCCC(=O)O)c2ccccc2)=C(C)C1=O (stereo not drawn) = > 30 µM
• OCc1cc(C(O)CNCCCCCCOCCCCc2ccccc2)ccc1O (stereo not drawn) = > 30 µM
• CC1(C)S[C@@H]2[C@H](NC(=O)[C@H](N)c3ccccc3)C(=O)N2[C@H]1C(=O)OCOC(=O)[C@@H]1N2C(=O)C[C@H]2S(=O)(=O)C1(C)C = > 30 µM
• CCCCC(=O)O[C@]1(C(=O)CO)[C@@H](C)C[C@H]2[C@@H]3CCC4=CC(=O)C=C[C@]4(C)[C@@]3(F)[C@@H](O)C[C@@]21C [BETAMETHASONE VALERATE] = 0.004 µM
• C/N=C(\NC)NCc1ccccc1 = > 30 µM
• CNCc1ccc(-c2[nH]c3cc(F)cc4c3c2CCNC4=O)cc1 = > 30 µM
• COc1cc2c(cc1OC)C(CCc1ccc(Cl)cc1)N(C)CC2 (stereo not drawn) = > 30 µM
• COc1ccccc1OCCNCC(O)COc1cccc2[nH]c3ccccc3c12 (stereo not drawn) = > 30 µM
• Cc1cccc(N2CC(CO)OC2=O)c1 (stereo not drawn) = > 30 µM
• [H]/N=C(/N)N/C(=N/[H])NCCc1ccccc1 = > 30 µM
• CC(C(=O)O)c1ccc2c(c1)[nH]c1ccc(Cl)cc12 (stereo not drawn) = > 30 µM
• NC(=O)CN1CCCC1=O = > 30 µM
• Cc1cc(C(C)(C)C)cc(C)c1CC1=NCCN1 = > 30 µM
• CC(=O)O[C@]1(C(C)=O)CC[C@H]2[C@@H]3C=C(C)C4=CC(=O)CC[C@@H]4[C@H]3CC[C@@]21C [NOMEGESTROL ACETATE] = 0.067 µM
• CCC[C@H](NC(=O)[C@@H]1[C@H]2CCC[C@H]2CN1C(=O)[C@@H](NC(=O)[C@@H](NC(=O)c1cnccn1)C1CCCCC1)C(C)(C)C)C(=O)C(=O)NC1CC1 = > 30 µM
• Nc1cc(-c2ccncc2)c[nH]c1=O = > 30 µM
• Nc1ccc(S(=O)(=O)Nc2nccs2)cc1 = > 30 µM
• CN1CCN(C2=Nc3ccccc3Oc3ccc(Cl)cc32)CC1 = > 30 µM
• COc1cc2nc(N3CCN(C(=O)C4CCCO4)CC3)nc(N)c2cc1OC (stereo not drawn) = > 30 µM
• Nc1ncn([C@H]2C[C@H](O)[C@@H](CO)O2)c(=O)n1 = > 30 µM
• CC(C(=O)O)c1ccc(-c2ccccc2)c(F)c1 (stereo not drawn) = > 30 µM
• CCN(CC)CCN1C(=O)CN=C(c2ccccc2F)c2cc(Cl)ccc21 = > 30 µM
• COCC1=C(C(=O)O)N2C(=O)[C@@H](NC(=O)/C(=N\OC)c3csc(N)n3)[C@H]2SC1 = > 30 µM
